Source: ChEMBL document CHEMBL5705886

Tested on: COLO 205
METHOD DESCRIPTION: Antiproliferative activity against human COLO 205 cells assessed as inhibition of cell viability measured for 6 to 7 days by cell titer glo assay
Assay type: functional, cell-based
pEC50: −log10 of the molar value.
EXPERIMENTAL READOUT: pEC50

> print(dat)
                                   molecule  readout.value
1  CCn1cc(-c2ccnc3[nH]c(-c4cccc(CN(C)C)c4)cc23)c(-c2ccc(NC(=O)N(C)C)cc2)n1 [GSK-1070916]           8.15

====

System: NB-4
METHOD DESCRIPTION: Antiproliferative activity against human NB4 cells assessed as inhibition of cell viability measured for 6 to 7 days by cell titer glo assay
Type: functional, cell-based
EXPERIMENTAL READOUT: EC50 (nM)

> print(dat)
                           structure.string  experimental.target  readout.value
1  CCn1cc(-c2ccnc3[nH]c(-c4cccc(CN(C)C)c4)cc23)c(-c2ccc(NC(=O)N(C)C)cc2)n1                 NB-4             11
